Test system: tobacco leaves
Assay: Effect of peptide infiltration on tobacco leaves (lesion size)
Format: in vivo
Settings: Table 2; 250 µM infiltrated into tobacco leaves; ± confidence interval
Where a SMILES comes first, the peptide text is derived from it. [ ]: non-standard residue; d: D form. The star is where a group is joined. Butyryl = CCCC(=O)*
ASSAY_READOUT: Size of the lesion (mm) 250 µM
Please give a number only; it is taken to be in mm.

Problem: Can you share its Size of the lesion (mm) 250 µM? I mean this molecule: CCCC(=O)NCCCC[C@H](NC(=O)[C@H](CCCCN)NC(=O)[C@H](CC(C)C)NC(=O)[C@@H](NC(=O)[C@H](CCCCN)NC(=O)[C@H](CCCCN)NC(=O)[C@@H](Cc1ccccc1)NC(=O)[C@H](CC(C)C)NC(=O)[C@H](CCCCN)NC(=O)[C@H](CCCCN)NC(C)=O)[C@@H](C)CC)C(=O)N[C@@H](CC(C)C)C(N)=O [BP475, Ac-KKLfKKILKK(COC3H7)L-NH2] (Ac-KKL[dF]KKILKK(Butyryl)L-NH2)
Result: 10

Problem: Can you share its Size of the lesion (mm) 250 µM? I mean this molecule: CCCCCC(=O)NCCCC[C@@H](NC(=O)[C@H](CC(C)C)NC(=O)[C@H](CCCCN)NC(=O)[C@H](CCCCN)NC(C)=O)C(=O)N[C@@H](CCCCN)C(=O)N[C@@H](CCCCN)C(=O)N[C@H](C(=O)N[C@@H](CC(C)C)C(=O)N[C@@H](CCCCN)C(=O)N[C@@H](Cc1ccc(O)cc1)C(=O)N[C@@H](CC(C)C)C(N)=O)[C@@H](C)CC
Result: 7

Problem: Can you share its Size of the lesion (mm) 250 µM? I mean this molecule: CCCC(=O)NCCCC[C@H](NC(=O)[C@H](CC(C)C)NC(=O)[C@@H](NC(=O)[C@H](CCCCN)NC(=O)[C@H](CCCCN)NC(=O)[C@@H](Cc1ccccc1)NC(=O)[C@H](CC(C)C)NC(=O)[C@H](CCCCN)NC(=O)[C@H](CCCCN)NC(C)=O)[C@@H](C)CC)C(=O)N[C@@H](Cc1ccc(O)cc1)C(=O)N[C@@H](CC(C)C)C(N)=O
Result: 8
